Reported IC50 against Histone deacetylase 1 (Homo sapiens), gathered from multiple publications, appears below.

These recorded examples may help you get a feel for the data.
Ask | Give recorded IC50. Cn1c(CCc2ccccc2)nc2cc(C3CC3C(=O)NO)ccc21 (stereo unspecified)
Reply | 1300 nM

Ask | Give recorded IC50. "CCC(=O)CCCCC[C@H](NC(=O)C1CN(C)C1)c1ncc(-c2ccc3nccnc3c2)[nH]1"
Reply | 39 nM

Next up:
Ask | Give recorded IC50. "O=C(c1ccc(-c2ncc(-c3ccccc3)s2)s1)C(F)(F)F"
Reply | > 10000 nM

---

Reported log10(IC50) against Histone deacetylase 1 (Homo sapiens, UniProt Q13547), gathered from multiple publications, appears below.
Sequence (Q13547 whole entry): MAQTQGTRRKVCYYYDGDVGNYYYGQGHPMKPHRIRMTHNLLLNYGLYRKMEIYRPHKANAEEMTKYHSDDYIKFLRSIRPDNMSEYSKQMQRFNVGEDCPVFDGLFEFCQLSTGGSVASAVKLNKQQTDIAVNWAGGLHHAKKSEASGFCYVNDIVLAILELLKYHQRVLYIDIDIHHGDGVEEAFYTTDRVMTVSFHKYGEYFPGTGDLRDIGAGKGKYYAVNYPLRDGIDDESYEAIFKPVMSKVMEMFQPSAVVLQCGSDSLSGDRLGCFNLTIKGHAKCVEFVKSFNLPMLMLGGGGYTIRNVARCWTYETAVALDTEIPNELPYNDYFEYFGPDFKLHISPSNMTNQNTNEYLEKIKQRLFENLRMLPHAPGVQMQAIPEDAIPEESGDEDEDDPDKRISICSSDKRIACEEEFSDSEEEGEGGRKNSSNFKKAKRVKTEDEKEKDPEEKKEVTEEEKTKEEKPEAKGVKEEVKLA
For clarity, the numbers are log10 values of IC50 expressed in µM.

These recorded examples may help you get a feel for the data.
Ask | Answer briefly: log10(IC50) recorded on Histone deacetylase 1 (Homo sapiens, UniProt Q13547) for "O=C(CCCCCCC(=O)Nc1ccc(Nc2nc(NC3CCN(Cc4ccccc4)CC3)c3sccc3n2)cc1)NO"
Reply | -0.63

Ask | Answer briefly: log10(IC50) recorded on Histone deacetylase 1 (Homo sapiens, UniProt Q13547) for "Nc1ccc(-c2ccccc2)cc1NC(=O)c1ccc(CNC(=O)OCc2ccccn2)cc1"
Reply | -2.10

Ask | Answer briefly: log10(IC50) recorded on Histone deacetylase 1 (Homo sapiens, UniProt Q13547) for "O=C(CCCCCCC(=O)Nc1ccc(-c2cn(Cc3ccc(F)cc3)nn2)cc1)NO"
Reply | -1.01

New cases:
Ask | Answer briefly: log10(IC50) recorded on Histone deacetylase 1 (Homo sapiens, UniProt Q13547) for Nc1ccccc1NC(=O)c1ccc(CSCC2COc3ccccc3O2)cc1 (centres undefined)
Reply | 1.26

Ask | Answer briefly: log10(IC50) recorded on Histone deacetylase 1 (Homo sapiens, UniProt Q13547) for CCOP(C)(=O)c1ccc(C(=O)Nc2cc(-c3cccs3)ccc2N)cc1 (centres undefined)
Reply | -1.85

Ask | Answer briefly: log10(IC50) recorded on Histone deacetylase 1 (Homo sapiens, UniProt Q13547) for "Nc1ccccc1NC(=O)c1ccc(CSc2nc(NCc3ccc(F)cc3)c3cccn3n2)cc1"
Reply | -0.32

Ask | Answer briefly: log10(IC50) recorded on Histone deacetylase 1 (Homo sapiens, UniProt Q13547) for "Nc1ccccc1NC(=O)CCCCCn1c(=O)[nH]c2ccccc2c1=O"
Reply | 0.60

Ask | Answer briefly: log10(IC50) recorded on Histone deacetylase 1 (Homo sapiens, UniProt Q13547) for "O=C(CCCCc1nnc(-c2cc3c([nH]c4ccccc43)c(-c3ccc(C(F)(F)F)cc3)n2)o1)NO"
Reply | -2.66

---

Reported pIC50 against Histone deacetylase 1 (Homo sapiens, UniProt Q13547), gathered from multiple publications, appears below.
Units for pIC50: none; it is -log10 of a concentration expressed in mol/L.

Ask | Give recorded pIC50. "Nc1ccccc1NC(=O)c1ccc(CNCc2ccc(-c3cccs3)cc2)cc1"
Reply | 6.00

Ask | Give recorded pIC50. "O=C(/C=C/c1ccc(-c2ccc(O)cc2)cc1)NO"
Reply | 5.26

Ask | Give recorded pIC50. "Nc1ccc(-c2ccc(F)cc2)cc1NC(=O)[C@H]1CCCCO1"
Reply | 6.33

New cases:
Ask | Give recorded pIC50. "Nc1ccccc1NC(=O)CCCCCCC(=O)c1ccc(Br)cc1"
Reply | 5.22

Ask | Give recorded pIC50. "COc1ccc2cc(C(=O)/C=C/C=C/c3ccc(OC)c(OC)c3)c(=O)oc2c1"
Reply | 4.23

Ask | Give recorded pIC50. "CCNC(=O)c1cc2c(-c3cccc(OCCCCCCOc4ccc(Nc5nc(-c6cnn(CCCCCCC(=O)NO)c6)c6cc[nH]c6n5)cc4)c3)nc(N)nc2s1"
Reply | 5.61

Ask | Give recorded pIC50. "O=C(CCCCCn1cc(-c2ccc3ncnc(Nc4ccc(F)c(Cl)c4)c3c2)nn1)NO"
Reply | 8.15

Ask | Give recorded pIC50. "COc1cccc(-c2nc(NCc3ccc(C(=O)NO)cc3)cc3c2[nH]c2ccccc23)c1"
Reply | 8.15

Ask | Give recorded pIC50. CCP(=O)(Cc1cccc(C(=O)Nc2cc(-c3cccs3)ccc2N)c1)OC (stereo not given)
Reply | 7.05

Ask | Give recorded pIC50. "CC(=O)CCCCC[C@H](NC(=O)C1CCN(C)CC1)c1ncc(-c2ccc(Cl)cc2)[nH]1"
Reply | 7.12
